study_system: Histone deacetylase 1 (Homo sapiens)
Sequence (Q13547 whole entry): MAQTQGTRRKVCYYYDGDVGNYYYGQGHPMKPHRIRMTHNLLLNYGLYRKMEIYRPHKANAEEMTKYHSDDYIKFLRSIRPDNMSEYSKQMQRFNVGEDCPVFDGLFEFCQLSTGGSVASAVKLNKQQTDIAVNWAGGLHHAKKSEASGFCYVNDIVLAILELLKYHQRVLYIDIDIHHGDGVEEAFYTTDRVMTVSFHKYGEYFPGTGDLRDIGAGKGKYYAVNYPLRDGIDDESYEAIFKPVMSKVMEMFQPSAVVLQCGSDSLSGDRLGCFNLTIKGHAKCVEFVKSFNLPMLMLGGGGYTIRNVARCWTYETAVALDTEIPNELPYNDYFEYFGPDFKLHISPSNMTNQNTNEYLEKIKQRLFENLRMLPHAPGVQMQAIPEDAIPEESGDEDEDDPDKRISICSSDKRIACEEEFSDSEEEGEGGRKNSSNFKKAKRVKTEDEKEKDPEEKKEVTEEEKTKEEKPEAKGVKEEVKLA
assay_comment: Inhibition of HDAC1 using KI-177 as substrate incubated 30 mins before substrate addition measured after 30 mins post substrate addition by fluorescence assay
readout_kind: pIC50
# reply with the number alone; pIC50 is -log10 of concentration in mol/L

Problem: Bench note: what pIC50 did CC(C)CCc1c(OCCCCCCC(=O)NO)ccc(CCC(=O)NO)c1O show?
Solution: 7.37

Problem: Repeat for the following compound: CC(C)CCc1c(OCCCCCCCC(=O)NO)ccc(CCC(=O)NO)c1O
Solution: 7.38

* * *

study_system: Histone deacetylase 4 (Homo sapiens, UniProt P56524)
Sequence (P56524 whole entry): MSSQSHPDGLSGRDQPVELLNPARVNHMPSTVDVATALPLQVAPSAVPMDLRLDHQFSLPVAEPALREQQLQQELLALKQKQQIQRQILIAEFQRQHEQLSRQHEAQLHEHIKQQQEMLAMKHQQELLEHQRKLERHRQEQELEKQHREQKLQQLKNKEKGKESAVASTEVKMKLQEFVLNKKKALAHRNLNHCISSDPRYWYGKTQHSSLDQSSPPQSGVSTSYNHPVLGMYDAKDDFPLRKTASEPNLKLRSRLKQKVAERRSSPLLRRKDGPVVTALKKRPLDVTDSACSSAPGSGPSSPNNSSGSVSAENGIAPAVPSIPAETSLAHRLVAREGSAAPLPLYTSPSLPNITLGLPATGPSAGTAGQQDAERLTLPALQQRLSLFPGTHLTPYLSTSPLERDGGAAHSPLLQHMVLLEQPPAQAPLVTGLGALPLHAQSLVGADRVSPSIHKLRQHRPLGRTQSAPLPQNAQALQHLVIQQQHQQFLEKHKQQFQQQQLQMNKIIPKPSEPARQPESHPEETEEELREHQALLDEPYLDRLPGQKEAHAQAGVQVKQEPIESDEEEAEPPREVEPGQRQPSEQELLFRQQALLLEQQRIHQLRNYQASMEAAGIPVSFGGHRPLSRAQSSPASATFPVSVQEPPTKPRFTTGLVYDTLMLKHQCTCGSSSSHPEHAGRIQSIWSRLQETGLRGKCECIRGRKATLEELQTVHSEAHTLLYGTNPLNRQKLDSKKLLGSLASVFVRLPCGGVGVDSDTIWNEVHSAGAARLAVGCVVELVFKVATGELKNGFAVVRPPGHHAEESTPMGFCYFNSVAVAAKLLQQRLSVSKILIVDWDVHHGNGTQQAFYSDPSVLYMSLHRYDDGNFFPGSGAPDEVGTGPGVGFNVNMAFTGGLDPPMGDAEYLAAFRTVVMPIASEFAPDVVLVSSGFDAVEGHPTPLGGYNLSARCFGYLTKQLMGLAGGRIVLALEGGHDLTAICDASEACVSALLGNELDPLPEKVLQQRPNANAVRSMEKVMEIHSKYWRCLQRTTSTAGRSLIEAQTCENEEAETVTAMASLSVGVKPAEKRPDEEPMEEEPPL
readout_kind: IC50

Problem: Bench note: what IC50 did CC(C)CCc1c(OCCCCCCC(=O)NO)ccc2c1OC(=O)CC2 show?
Solution: > 10 µM
